Some binders, each annotated with its measured Raw Antigen Barcode Count.
- system name: Ole e 1 (olive) (UniProt P19963)
- Sequence (P19963 whole entry): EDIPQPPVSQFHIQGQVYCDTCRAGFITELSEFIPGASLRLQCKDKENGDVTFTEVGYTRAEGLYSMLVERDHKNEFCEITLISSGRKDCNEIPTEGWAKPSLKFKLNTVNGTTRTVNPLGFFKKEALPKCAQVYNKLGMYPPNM
- protocol summary: barcoded antigen sequencing of single IgE PCs with trapped IgE
property: Raw Antigen Barcode Count

binder="Candidate ID 7 (antibody, V domains shown) VH: QVLLKESGPGLVAPSQSLSITCTVSGFSLTSYGVSWVRQPPGKGLEWLGVIWGDGNTDYHSALISRLSIRKDNSKSQVFLKLNSLQTDDTATYYCAIGSPFAYWGQGTLVTVSA VL: DVLMTQTPLSLPVSLGDQVSISCRSSQNIVHSTGNTYLEWYLQKPGQSPKLLIFKVSNRLSGVPDRFSGSGSGTDFTLNISRVEAADLGIYSCFQGSHVPFTFGSGTKLEIK" value=0
binder="Candidate ID 9 (antibody, V domains shown) VH: EVQLQQSGPELVKPGASVKISCKASGYTFTDYYMNWVKQSHGKSLEWIGDINPNNGGTSYNQKFKGKATLTVDKSSSTAYMELRSLTSEDSAVYYCAYGPPRGPPWFAYWGQGTLVTVSA VL: DIVLTQSPASLAVSLGQRATISCRASKSVSTSGYSYMHWYQQKPGQPPKLLIYLASNLESGVPARFSGSGSGTDFTLNIHPVEEEDAATYYCQHSRELPWTFGGGTKLEIK" value=1
binder="Candidate ID 21 (antibody, V domains shown) VH: QVQLQQSGPELVKPGASVKISCKAPGNAFSYSWMNWVKQRPGKGLEWVGRIYPGDGDTNYNGKFMGKATLTADKSSNTAYIQLSSLTSEDSAVYFCARSGGGTLYWYFDVWGTGTTVTVSS VL: DIVMTQSPSSLALSVGQKVTMNCRSSQSLLNSFNQKNYLAWFQQKPGQSPRLLIYFASTRESGVPDRFIGSGSGTDFTLTISSVQAEDLADYFCQQHYNTPLTFGAGTTLELK" value=4
